B1: DFFB (parent)
chain: KLNCDPSRIYKPQTRLKRKQPVRK

# Variants of: B1
# TEST DESCRIPTION: protein stability index of a GFP-peptide fusion (GPS, HEK-293T) (PSI 1-6); higher = more stable;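 note: lentivirally expressed fusions sorted by FACS into six bins by GFP to DsRed ratio, PSI derived from sequencing read proportions per bin multiplied by bin number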
# TEST SETTINGS: c terminus: a fixed tail appended
REPORTED METRIC: protein stability index
// print number alone

Incoming: Indicate the recorded protein stability index value for this variant: R23M
Outgoing: 3.1

Incoming: Indicate the recorded protein stability index value for this variant: P6M
Outgoing: 3.16

Incoming: Indicate the recorded protein stability index value for this variant: K17H
Outgoing: 2.55

Incoming: Indicate the recorded protein stability index value for this variant: Y10R
Outgoing: 3.56
